Hello, the source for this data is the OPERA property sets (Mansouri et al. 2018), in case you need it.

REPORTED PROPERTY: melting point (°C)
The reply should contain only the number, in °C.

>  <COMPOUND>
C[C@H]1[C@H](C)CC[C@]2(C)CC[C@]3(C)C(=CC[C@@H]4[C@@]5(C)CC[C@H](O)C(C)(C)[C@@H]5CC[C@]43C)[C@H]12

>  <UNIT TAG>
°C

>  <DATA VALUE>
186

$$$$
>  <COMPOUND>
CC(/C=C/C=C(\C)C(=O)O)=C\C=C\C=C(C)\C=C\C=C(/C)C(=O)O

>  <UNIT TAG>
°C

>  <DATA VALUE>
286

$$$$

Request: Assign melting point to the following record: `COc1c(Cl)c(Cl)cc(Cl)c1Cl`
Response: 88.5

Request: Assign melting point to the following record: `CC(C)(C)c1nnc(NS(=O)(=O)c2ccc(N)cc2)s1`
Response: 222

Request: Assign melting point to the following record: `C#CCCCC#C`
Response: -85
